All values here come from paper PMC9482650.

system under test: GRASP, Q7Z6J2
Sequence (Q7Z6J2 96-193): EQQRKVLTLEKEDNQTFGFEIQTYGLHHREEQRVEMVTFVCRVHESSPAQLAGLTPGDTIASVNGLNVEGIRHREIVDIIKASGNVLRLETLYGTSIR
protocol summary: holdup assay
Design: key: below the threshold = too weak to quantify, mostly under pKd 3.1 to 4
test context: plain residues with an end cap or a label only (N-terminal biotin on a linker: ttds)
Please go through the items and note down their pKd.
Would you mind answering with just the numeric figure?

-- ask Please supply the value of reported pKd for the item PRVKPQRSKV [PPP1R13L, Q8WUF5]
-- reply 4.39

-- ask Please supply the value of reported pKd for the item SGSRPSATVV [HPV73-E6, Q82005]
-- reply 3.8

-- ask Please supply the value of reported pKd for the item VDFPPKESSL [ACVR2A, P27037]
-- reply 3.47

-- ask Please supply the value of reported pKd for the item PVRVCEETSL [OTULIN, Q96BN8]
-- reply 4.71

-- ask Please supply the value of reported pKd for the item RLPKIKETTV [FRMPD4, Q14CM0]
-- reply 3.47
